# assay.procedure: ACEA_AR_agonist_AUC_viability: ACEA Biosciences xCELLigence Real-Time Cell Analysis on Androgen Receptor Agonism for Viability (AID 2283775)
Records with an inconclusive call do not appear. The source made the active and inactive calls. How the source made its calls: active means hit-call score of the fitted dose curve at least 0.9, where 1 is the maximum; inconclusive means response in the unintended direction; inactive means score below 0.9.
# valid calls are active, inactive; nothing else

Look over these answered cases.
CCc1occc(=O)c1O ... inactive
CC(C)(C)N ... inactive
N#Cc1ccc(C2CCCc3cncn32)cc1 (stereo unspecified) ... inactive
CCCCC(C=O)CC (stereo unspecified) ... inactive
CCCCNS(=O)(=O)c1ccc(C)cc1 ... inactive
CN(C)Cc1cc(CN(C)C)c(O)c(CN(C)C)c1 ... active
c1ccc(Nc2cccc3ccccc23)cc1 ... inactive
CCCCCCCCCCCCCCCCCCOS(=O)(=O)O ... inactive

Query :: Test call for this molecule, please: `O=C(Oc1ccccc1)c1ccccc1O`
Result :: inactive

Query :: Can you handle O=C(O)C1CCC(C(=O)O)CC1 (stereo unspecified) next?
Result :: inactive

Query :: Let us now turn to CC1=CCC2CC1C2(C)C (stereo unspecified)
Result :: inactive

Data provenance is PubChem BioAssay (EPA / NIEHS).
